PROCEDURE DETAILS: Half-life in rat at 5 mg/kg, po or 1 mg/kg, iv
Format: ADME, organism-based
PROTOCOL CONDITIONS: in vivo
PROPERTY NAME: half-life (h)
Give a bare numeral; the unit h is implied.

Answered examples (2):
>>> obs_value("[2H]C([2H])([2H])Oc1cc2ccnc(O[C@@H]3C[C@H]4C(=O)N[C@]5(C(=O)NS(=O)(=O)C6(C)CC6)C[C@H]5/C=C\\CC[C@@H](C)C[C@@H](CC)[C@H](NC(=O)OC(C)(C)C(F)(F)F)C(=O)N4C3)c2cc1F")
13.4
>>> obs_value("CC[C@@H]1C[C@H](C)CC/C=C\\[C@@H]2C[C@@]2(C(=O)NS(=O)(=O)C2(C)CC2)NC(=O)[C@@H]2C[C@@H](Oc3ncc(OC)c4ccc(F)cc34)CN2C(=O)[C@H]1NC(=O)OC(C)(C)C(F)(F)F")
7.9

half-life reported for this compound `CC[C@@H]1C[C@H](C)CC/C=C\[C@@H]2C[C@@]2(C(=O)NS(=O)(=O)C2(C)CC2)NC(=O)[C@@H]2C[C@@H](Oc3nccc4cc(OC)c(F)cc34)CN2C(=O)[C@H]1NC(=O)OC(C)(C)C(F)(F)F` : 9.3

###

PROCEDURE DETAILS: Inhibition of recombinant full length NS3/4A protease in Hepatitis C virus subtype 2a replicon infected in human HuH7 cells preincubated for 3 days followed by substrate addition and measured after 2 hrs by renilla luciferase reporter gene assay
Assay type: cell-based
PROTOCOL CONDITIONS: Huh-7
pEC50 values, listed per item
Kindly note that pEC50 refers to -log10 of the concentration in mol/L and answer with the value alone.

Answered examples (5):
>>> obs_value("COc1cnc(O[C@@H]2C[C@H]3C(=O)N[C@]4(C(=O)NS(=O)(=O)C5CC5)C[C@H]4/C=C\\CCCC[C@@H](C)[C@H](NC(=O)OC(C)(C)C(F)(F)F)C(=O)N3C2)c2ccccc12")
8.82
>>> obs_value("CC[C@@H]1C[C@H](C)CC/C=C\\[C@@H]2C[C@@]2(C(=O)NS(=O)(=O)C2(C)CC2)NC(=O)[C@@H]2C[C@@H](Oc3ncc(OC)c4ccccc34)CN2C(=O)[C@H]1NC(=O)OC(C)(C)C(F)(F)F")
8.96
>>> obs_value("COc1cnc(O[C@@H]2C[C@H]3C(=O)N[C@]4(C(=O)NS(=O)(=O)C5(C)CC5)C[C@H]4/C=C\\CC[C@@H](C)C[C@@H](C)[C@H](NC(=O)OC(C)(C)C(F)(F)F)C(=O)N3C2)c2ccccc12")
9.22
>>> obs_value("COc1cnc(O[C@@H]2C[C@H]3C(=O)N[C@]4(C(=O)NS(=O)(=O)C5CC5)C[C@H]4/C=C\\CC[C@H](C)C[C@@H](C)[C@H](NC(=O)OC(C)(C)C)C(=O)N3C2)c2cc(Cl)ccc12")
7.72
>>> obs_value("COc1cnc(O[C@@H]2C[C@H]3C(=O)N[C@]4(C(=O)NS(=O)(=O)C5CC5)C[C@H]4/C=C\\CCCC[C@@H](C)[C@H](NC(=O)OC(C)(C)C(F)(F)F)C(=O)N3C2)c2cc(Cl)ccc12")
8.77

pEC50 reported for this compound `CC[C@@H]1C[C@H](C)CC/C=C\[C@@H]2C[C@@]2(C(=O)NS(=O)(=O)C2CC2)NC(=O)[C@@H]2C[C@@H](Oc3ncc(OC)c4ccccc34)CN2C(=O)[C@H]1NC(=O)OC(C)(C)C(F)(F)F` : 8.82

pEC50 reported for this compound `COc1cnc(O[C@@H]2C[C@H]3C(=O)N[C@]4(C(=O)NS(=O)(=O)C5CC5)C[C@H]4/C=C\CCCC[C@@H](C)[C@H](NC(=O)OC(C)(C)C)C(=O)N3C2)c2cc(Cl)ccc12` : 8.96

pEC50 reported for this compound `CC[C@@H]1C[C@H](C)CC/C=C\[C@@H]2C[C@@]2(C(=O)NS(=O)(=O)C2(C)CC2)NC(=O)[C@@H]2C[C@@H](Oc3nccc4cc(OC)c(F)cc34)CN2C(=O)[C@H]1NC(=O)OC(C)(C)C(F)(F)F` : 8.85

pEC50 reported for this compound `COc1cnc(O[C@@H]2C[C@H]3C(=O)N[C@]4(C(=O)NS(=O)(=O)C5CC5)C[C@H]4/C=C\CC[C@@H](C)C[C@@H](C)[C@H](NC(=O)OC(C)(C)C(F)(F)F)C(=O)N3C2)c2ccccc12` : 9.10

Hey, just so you know, these numbers are from ChEMBL document CHEMBL4765464.
